# Tested on: SK-MEL-28
# assay_notes: NCI tumour cell line growth inhibition, 48 h
Activity calls are given as the source filed them. No stated cut-off is given here; in the data, active = GI50 up to about 1.1 µM and inactive = higher.
API: response.call in yes (active), no (inactive)

Which outcome was assigned to "O=C(CSc1nnc(-c2ccccn2)s1)N/N=C/c1ccccc1" in this test? no

For "Brc1ccc2c(-c3nc(-c4c[nH]c5ccccc45)cs3)c[nH]c2c1" then? no

* * *

Listed below: GI50 values for each entry.
# System: SNB-75
# assay_notes: NCI tumour cell line growth inhibition, 48 h
Active and inactive are the calls of the source. Cut-off read from the data, not from the text of the source: active = GI50 up to about 1.1 µM and inactive = higher.

compound	GI50
Cc1ccc(N2C(=O)/C(=C3\SC(C(N)=O)=C(N)N3c3ccccc3)SC2=S)cc1	7.91 µM (inactive)
CCCN(CCC)c1cc2c(cc1F)c(=O)c(C(=O)O)cn2-c1ccc(N2CCN(C)CC2)cn1	14.7 µM (inactive)
O=C(CP(c1ccccc1)c1ccccc1)c1cccc(C(=O)CP(c2ccccc2)c2ccccc2)c1	55.6 µM (inactive)

Pending compound:
State its GI50 on SNB-75: "O=c1[nH]nc(-c2ccccc2)n1-n1cccc1" > 100 µM (inactive)

* * *

# Tested on: MDA-MB-435
# assay_notes: NCI tumour cell line growth inhibition, 48 h
The source made the active and inactive calls. No stated cut-off is given here; in the data, active = GI50 up to about 1.1 µM and inactive = higher. Where a SMILES comes first, the peptide text is derived from it. [ ]: non-standard residue; d: D form. The star is where a group is joined. Hyp = O=C(O)[CH]1C[CH](O)CN1; Cbz = O=C(OCc1ccccc1)*; Boc = CC(C)(C)OC(=O)*
experimental_readout: GI50

Examples from the recorded data:
compound	GI50
CC(C)(C)[Si](C)(C)OCC1CCC(n2cnc3c(=O)[nH]cnc32)O1 (stereo not given)	> 100 µM (inactive)
Cc1cc2nc(N)n[n+]([O-])c2cc1C	> 100 µM (inactive)
Nc1nonc1-c1noc(-c2nonc2N)[n+]1[O-]	57 µM (inactive)
CC(C)(C)OC(=O)NC(Cc1ccccc1)C(=O)N1CCCC1C(N)=O (stereo not drawn) (Boc-Phe-Pro-NH2; configuration not given here)	> 100 µM (inactive)

Pending compound:
Please give the measured GI50 for this compound: NC(=O)CNC(=O)C1CC(O)CN1C(=O)C1CCCN1C(=O)OCc1ccccc1 (stereo not drawn) (Cbz-Pro-[Hyp]-Gly-NH2; configuration not given here) > 100 µM (inactive)

* * *

# Tested on: NCI-H460
# assay_notes: NCI tumour cell line growth inhibition, 48 h
The source made the active and inactive calls. Cut-off read from the data, not from the text of the source: active = GI50 up to about 1.1 µM and inactive = higher.
API: response.call in y for active, n for inactive

The following compounds have reported results that may help.
compound	category
C=CCNC1=C2C[C@@H](C)C[C@@H](OC)[C@H](OC(=O)CN)[C@H](C)/C=C(\C)[C@@H](OC(N)=O)[C@H](OC)/C=C\C=C(/C)C(=O)NC(=CC1=O)C2=O	y
CCc1c(O)c2c(c(O)c1C(C)=O)C(=O)c1c(cc(O)c(C(=O)O)c1C(=O)O)C2=O	n
O=[N+]([O-])c1ccc(C[P+]2(c3ccccc3)CCCCC2)cc1.[O-][Cl+3]([O-])([O-])[O-]	n
COC(=O)C1CC(C=[N+](C)C)=C(SC)N1C(=O)OCc1ccccc1 (configuration not stated)	n
O=C1C(Cl)=C(Sc2nnc3c4ccccc4c4ccccc4c3n2)C(=O)c2ccccc21	n
O=C(CSc1nnc(-c2ccccn2)s1)N/N=C/c1ccccc1	n
O=C(c1ccccc1)c1nc2ccc(Cl)cc2c2c1CCCO2	n
Cc1ccccc1C(=O)Oc1ccc(O)cc1	n
FC(F)(F)c1ccc(/C=N/C23CC4CC(CC(C4)C2)C3)cc1	n
C=CC(C)(C)n1cc(C2=C3OC(=O)C(c4cn(C(C)(C)C=C)c5ccccc45)=C3OC2=O)c2ccccc21	n

Which outcome was assigned to "COc1cc(-c2ccc(NC(=O)SCCC(=O)O)cc2OC)ccc1NC(=O)SCCC(=O)O" in this test? n

For CC(C)(C)[Si](C)(C)OCC1CCC(n2cnc3c(=O)[nH]cnc32)O1 (configuration not stated) then? n

For "Cc1c2cc[n+](C)cc2c(C)c2c1[nH]c1ccc(OC(C)C)cc12" then? n

For "CCCc1nnc2sc(COc3cc(Cl)c(OCc4nn5c(CCC)nnc5s4)cc3Cl)nn12" then? n

For "C(=C\c1ccc(-c2cn3cc(/C=C/C=N/NC4=NCCN4)ccc3n2)cc1)/C=N/NC1=NCCN1" then? y

For "CC(C)C(=O)/C=C/c1c(Cl)cccc1Cl" then? n

For CC1OC1P(=O)(O)O (configuration not stated) then? n

For "C[C@]12CC[C@H]3[C@@H](CC=C4C[C@@H](N5CCCC5)CC[C@@]43C)[C@@H]1C[C@H](N1CCCCC1)[C@@H]2O" then? n

For C=C(C)[C@@H]1CC[C@@H]2C(=CC[C@]3(C)C([C@H](C)CC/C=C(/C)C(=O)O)CC[C@@]23C)[C@@]1(C)CCC(=O)O (some centres not stated) then? n

For "c1ccc2c3c(ccc2c1)-c1[nH]ncc1CCO3" then? n

For "S=c1sc2c(s1)SCc1cccc(n1)CSc1sc(=S)sc1SCc1cccc(n1)CS2" then? n

For O=C1CSC(c2cccc(Oc3ccccc3)c2)N1c1cccc(Cl)c1Cl (configuration not stated) then? n

For NC(=O)CCC(NCc1c2ccccc2[n+]([O-])c2ccccc12)C(=O)O (configuration not stated) then? n

For Cc1c2cnccc2c(C)c2c1c1ccccc1n2CC1CO1 (configuration not stated) then? y

For "O=C(O)[C@@H]1C[C@@H](O)CN1" then? n

For CC(C)CCC[C@@H](C)C1CCC2[C@@H]3CC=C4C[C@@H](C(=O)NCCN(C)C)CC[C@]4(C)C3CC[C@@]21C (some centres not stated) then? n

For "c1cc(-c2sc(-c3ccncc3)c(-c3ccncc3)c2-c2ccncc2)ccn1" then? n

For "Cc1cc(NS(=O)(=O)c2ccc(NC(NC(=O)OC(C)C)(C(F)(F)F)C(F)(F)F)cc2)nc(C)n1" then? n

For "CCCCS/C(=C(/C#N)C(N)=O)c1cc2c([nH]1)CCCC2" then? n

For CC(=O)OC(C)(C)CCC(=O)[C@](C)(O)[C@H]1[C@H](O)C[C@@]2(C)[C@@H]3CCc4c(cc(OC5OC(CO)C(O)C(O)C5O)c(O)c4C)C3(C)C(=O)C[C@]12C (some centres not stated) then? n

For C=CCCCC1CCCNC1=O (configuration not stated) then? n

For "Cc1ccc2nc3[nH]nc(N)c3nc2c1" then? n

For "Oc1ccc(Cc2cc(Cc3ccc(O)cc3)cc(Cc3ccc(O)cc3)c2)cc1" then? n

For "Cc1ccnc(NS(=O)(=O)c2ccc(NC3=CC(=O)C(=O)c4ccccc43)cc2)n1" then? n

For "COc1cc(/C=C2\N=C(c3ccccc3)N(c3ccc4c(c3)Sc3cc(N5C(=O)/C(=C/c6cc(OC)c(OC)c(OC)c6)N=C5c5ccccc5)ccc3N4)C2=O)cc(OC)c1OC" then? n

For COc1ccc(N2C(=O)[C@H]3CC(C)c4c([nH]c5ccccc45)[C@H]3C2=O)cc1 (some centres not stated) then? n

For "Cc1ccc(C(=O)Nc2ccc(S(=O)(=O)O)c3cc(S(=O)(=O)O)cc(S(=O)(=O)O)c23)cc1NC(=O)c1cccc(N)c1" then? n
